- PROCEDURE SUMMARY: The drug is tested on WLS-077 corresponding to human gut metagenome with ENA study accession number: PRJEB37062 and ENA sample accession number: ERS12561750 for biotransformation under anaerobic condition. The drug concentrations were measured over 9 timepoints collected between 0 and 24 hours of incubation by liquid-chromatography-coupled mass spectrometry (LC–MS); note: call rule not given here
- PARTICULARS: 2 µM

[
  {
    "COMPOUND": "COc1ccc2cc([C@H](C)C(=O)O)ccc2c1",
    "Bacterial Biotransformation": "Compound NOT metabolized"
  },
  {
    "COMPOUND": "O=P1(N(CCCl)CCCl)NCCCO1 (centres undefined) [CYCLOPHOSPHAMIDE ANHYDROUS]",
    "Bacterial Biotransformation": "Compound NOT metabolized"
  },
  {
    "COMPOUND": "CC(C)(C)NC(=O)[C@H]1CC[C@H]2[C@@H]3CC[C@H]4NC(=O)C=C[C@]4(C)[C@H]3CC[C@]12C [FINASTERIDE]",
    "Bacterial Biotransformation": "Compound metabolized"
  },
  {
    "COMPOUND": "OC(c1cc(C(F)(F)F)nc2c(C(F)(F)F)cccc12)C1CCCCN1 (centres undefined)",
    "Bacterial Biotransformation": "Compound metabolized"
  },
  {
    "COMPOUND": "CC(=O)OCC(=O)NCCCOc1cccc(CN2CCCCC2)c1 [ROXATIDINE ACETATE]",
    "Bacterial Biotransformation": "Compound metabolized"
  },
  {
    "COMPOUND": "CN(C)CCc1c[nH]c2ccc(CS(=O)(=O)N3CCCC3)cc12",
    "Bacterial Biotransformation": "Compound NOT metabolized"
  },
  {
    "COMPOUND": "COc1cc(C(=O)NCc2ccc(OCCN(C)C)cc2)cc(OC)c1OC [TRIMETHOBENZAMIDE]",
    "Bacterial Biotransformation": "Compound NOT metabolized"
  },
  {
    "COMPOUND": "CC1Cc2ccccc2N1NC(=O)c1ccc(Cl)c(S(N)(=O)=O)c1 (centres undefined) [INDAPAMIDE]",
    "Bacterial Biotransformation": "Compound NOT metabolized"
  },
  {
    "COMPOUND": "O=C1C(CC[S+]([O-])c2ccccc2)C(=O)N(c2ccccc2)N1c1ccccc1 (centres undefined)",
    "Bacterial Biotransformation": "Compound metabolized"
  }
]

* * *

- PARTICULARS: human gut metagenome, 24 h, 2 µM

[
  {
    "COMPOUND": "CN(C)CCc1c[nH]c2ccc(CS(=O)(=O)N3CCCC3)cc12",
    "Bacterial Biotransformation": "Compound metabolized"
  },
  {
    "COMPOUND": "N#Cc1ccc2c(c1)N(CCCN1CCC(O)CC1)c1ccccc1S2",
    "Bacterial Biotransformation": "Compound metabolized"
  },
  {
    "COMPOUND": "COc1cc2nc(N3CCN(C(=O)C4COc5ccccc5O4)CC3)nc(N)c2cc1OC.CS(=O)(=O)O (centres undefined) [DOXAZOSIN MESYLATE]",
    "Bacterial Biotransformation": "Compound metabolized"
  },
  {
    "COMPOUND": "CCOC(=O)[C@H](CCc1ccccc1)N[C@@H](C)C(=O)N1CCC[C@H]1C(=O)O.O=C(O)/C=C\\C(=O)O [ENALAPRIL MALEATE]",
    "Bacterial Biotransformation": "Compound NOT metabolized"
  },
  {
    "COMPOUND": "CCc1oc2ccccc2c1C(=O)c1cc(Br)c(O)c(Br)c1",
    "Bacterial Biotransformation": "Compound metabolized"
  },
  {
    "COMPOUND": "CC(C)(C)NCC(O)c1cc(Cl)c(N)c(Cl)c1 (centres undefined)",
    "Bacterial Biotransformation": "Compound NOT metabolized"
  },
  {
    "COMPOUND": "CCN(CC)CCNC(=O)c1cc(S(C)(=O)=O)ccc1OC [TIAPRIDE]",
    "Bacterial Biotransformation": "Compound metabolized"
  },
  {
    "COMPOUND": "CCN(CC)C(=O)C1(c2ccccc2)CC1CN (centres undefined)",
    "Bacterial Biotransformation": "Compound NOT metabolized"
  },
  {
    "COMPOUND": "CC(NC(C)(C)C)C(=O)c1cccc(Cl)c1 (centres undefined)",
    "Bacterial Biotransformation": "Compound NOT metabolized"
  }
]

* * *

- PARTICULARS: human gut metagenome, 24 h, 2 µM
RESULT TYPE: Bacterial Biotransformation

[
  {
    "MOLECULE": "COc1cc2nc(N3CCN(C(=O)C4COc5ccccc5O4)CC3)nc(N)c2cc1OC.CS(=O)(=O)O (centres undefined) [DOXAZOSIN MESYLATE]",
    "EXPERIMENTAL RESULT": "Compound NOT metabolized"
  },
  {
    "MOLECULE": "Cc1cc(C)cc(OCC2CNC(=O)O2)c1 (centres undefined)",
    "EXPERIMENTAL RESULT": "Compound metabolized"
  },
  {
    "MOLECULE": "CCN(CC)CCNC(=O)c1ccc(NC(C)=O)cc1 [ACECAINIDE]",
    "EXPERIMENTAL RESULT": "Compound NOT metabolized"
  },
  {
    "MOLECULE": "CCN(C)C(=O)Oc1cccc([C@H](C)N(C)C)c1.O=C(O)C(O)C(O)C(=O)O [RIVASTIGMINE TARTRATE]",
    "EXPERIMENTAL RESULT": "Compound NOT metabolized"
  },
  {
    "MOLECULE": "N#Cc1ccc2c(c1)N(CCCN1CCC(O)CC1)c1ccccc1S2",
    "EXPERIMENTAL RESULT": "Compound metabolized"
  },
  {
    "MOLECULE": "Br.COc1ccc2c(c1)[C@]13CCCC[C@@H]1[C@H](C2)N(C)CC3.O [DEXTROMETHORPHAN HYDROBROMIDE]",
    "EXPERIMENTAL RESULT": "Compound NOT metabolized"
  },
  {
    "MOLECULE": "CCCCC(=O)O[C@]1(C(=O)CO)[C@@H](C)C[C@H]2[C@@H]3CCC4=CC(=O)C=C[C@]4(C)[C@@]3(F)[C@@H](O)C[C@@]21C [BETAMETHASONE VALERATE]",
    "EXPERIMENTAL RESULT": "Compound NOT metabolized"
  },
  {
    "MOLECULE": "CCOC(=O)C1=C[C@]2(CC)CCCN3CCc4c(n1c1ccccc41)[C@@H]32",
    "EXPERIMENTAL RESULT": "Compound NOT metabolized"
  },
  {
    "MOLECULE": "CCN(CC)CCNC(=O)c1cc(S(C)(=O)=O)ccc1OC [TIAPRIDE]",
    "EXPERIMENTAL RESULT": "Compound NOT metabolized"
  },
  {
    "MOLECULE": "CCOC(=O)[C@H](CCc1ccccc1)N[C@@H](C)C(=O)N1Cc2ccccc2C[C@H]1C(=O)O",
    "EXPERIMENTAL RESULT": "Compound metabolized"
  },
  {
    "MOLECULE": "c1ccc2[nH]c(-c3cscn3)nc2c1",
    "EXPERIMENTAL RESULT": "Compound NOT metabolized"
  },
  {
    "MOLECULE": "CCCN1C[C@H](CSC)C[C@@H]2c3cccc4[nH]cc(c34)C[C@H]21.CS(=O)(=O)O [PERGOLIDE MESYLATE]",
    "EXPERIMENTAL RESULT": "Compound NOT metabolized"
  },
  {
    "MOLECULE": "C=C[C@H]1CN2CC[C@H]1C[C@H]2[C@H](O)c1ccnc2ccc(OC)cc12.C=C[C@H]1CN2CC[C@H]1C[C@H]2[C@H](O)c1ccnc2ccc(OC)cc12.O.O.O=S(=O)(O)O [QUININE SULFATE]",
    "EXPERIMENTAL RESULT": "Compound NOT metabolized"
  },
  {
    "MOLECULE": "O=C(NC(Cc1cc(=O)[nH]c2ccccc12)C(=O)O)c1ccc(Cl)cc1 (centres undefined) [REBAMIPIDE]",
    "EXPERIMENTAL RESULT": "Compound NOT metabolized"
  },
  {
    "MOLECULE": "CCCN(CCC)CCc1cccc2c1CC(=O)N2",
    "EXPERIMENTAL RESULT": "Compound NOT metabolized"
  },
  {
    "MOLECULE": "O=C1C(CC[S+]([O-])c2ccccc2)C(=O)N(c2ccccc2)N1c1ccccc1 (centres undefined)",
    "EXPERIMENTAL RESULT": "Compound metabolized"
  },
  {
    "MOLECULE": "COC(=O)C(c1ccccc1)C1CCCCN1 (centres undefined) [METHYLPHENIDATE]",
    "EXPERIMENTAL RESULT": "Compound NOT metabolized"
  },
  {
    "MOLECULE": "CC(=O)OCC(=O)NCCCOc1cccc(CN2CCCCC2)c1 [ROXATIDINE ACETATE]",
    "EXPERIMENTAL RESULT": "Compound metabolized"
  },
  {
    "MOLECULE": "CCCC(C)(COC(N)=O)COC(=O)NC(C)C (centres undefined)",
    "EXPERIMENTAL RESULT": "Compound metabolized"
  },
  {
    "MOLECULE": "CC12CC3CC(C)(C1)CC(N)(C3)C2 [MEMANTINE]",
    "EXPERIMENTAL RESULT": "Compound NOT metabolized"
  },
  {
    "MOLECULE": "CC1Cc2ccccc2N1NC(=O)c1ccc(Cl)c(S(N)(=O)=O)c1 (centres undefined) [INDAPAMIDE]",
    "EXPERIMENTAL RESULT": "Compound NOT metabolized"
  },
  {
    "MOLECULE": "COc1ccccc1OCCNCC(O)COc1cccc2[nH]c3ccccc3c12 (centres undefined)",
    "EXPERIMENTAL RESULT": "Compound NOT metabolized"
  },
  {
    "MOLECULE": "CC#CCn1c(N2CCC[C@@H](N)C2)nc2c1c(=O)n(Cc1nc(C)c3ccccc3n1)c(=O)n2C",
    "EXPERIMENTAL RESULT": "Compound NOT metabolized"
  },
  {
    "MOLECULE": "CC[C@H](C)C(=O)O[C@H]1CCC=C2C=C[C@H](C)[C@H](CC[C@@H]3C[C@@H](O)CC(=O)O3)[C@H]21",
    "EXPERIMENTAL RESULT": "Compound metabolized"
  },
  {
    "MOLECULE": "CCOc1cc(CC(=O)N[C@@H](CC(C)C)c2ccccc2N2CCCCC2)ccc1C(=O)O [REPAGLINIDE]",
    "EXPERIMENTAL RESULT": "Compound metabolized"
  },
  {
    "MOLECULE": "CCN(CC)C(=O)C1(c2ccccc2)CC1CN (centres undefined)",
    "EXPERIMENTAL RESULT": "Compound NOT metabolized"
  },
  {
    "MOLECULE": "CCN(C(C)=O)c1cccc(-c2ccnc3c(C#N)cnn23)c1",
    "EXPERIMENTAL RESULT": "Compound NOT metabolized"
  },
  {
    "MOLECULE": "CC(NC(C)(C)C)C(=O)c1cccc(Cl)c1 (centres undefined)",
    "EXPERIMENTAL RESULT": "Compound NOT metabolized"
  },
  {
    "MOLECULE": "CN(CCOc1ccc(CC2SC(=O)NC2=O)cc1)c1ccccn1.O=C(O)/C=C\\C(=O)O (centres undefined) [ROSIGLITAZONE MALEATE]",
    "EXPERIMENTAL RESULT": "Compound NOT metabolized"
  },
  {
    "MOLECULE": "CN(C/C=C/C#CC(C)(C)C)Cc1cccc2ccccc12",
    "EXPERIMENTAL RESULT": "Compound metabolized"
  },
  {
    "MOLECULE": "COc1ccc([C@@H]2Sc3ccccc3N(CCN(C)C)C(=O)[C@@H]2OC(C)=O)cc1",
    "EXPERIMENTAL RESULT": "Compound NOT metabolized"
  },
  {
    "MOLECULE": "Cc1nc(Nc2ncc(C(=O)Nc3c(C)cccc3Cl)s2)cc(N2CCN(CCO)CC2)n1 [DASATINIB ANHYDROUS]",
    "EXPERIMENTAL RESULT": "Compound NOT metabolized"
  },
  {
    "MOLECULE": "COC(=O)[C@H](c1ccccc1Cl)N1CCc2sccc2C1.O=S(=O)(O)O [CLOPIDOGREL BISULFATE]",
    "EXPERIMENTAL RESULT": "Compound metabolized"
  },
  {
    "MOLECULE": "CNNCc1ccc(C(=O)NC(C)C)cc1",
    "EXPERIMENTAL RESULT": "Compound NOT metabolized"
  }
]
